tested-on: human Cystic Fibrosis Transmembrane Conductance Regulator (CFTR) harboring the ΔF508 mutation (Homo sapiens, UniProt P13569, DEL508-508)
Construct: expressed in transfected cells; host or cells: H441 carcinoma line (G418-selected)
Sequence (P13569 with tags, fused parts or gaps DEL508-508): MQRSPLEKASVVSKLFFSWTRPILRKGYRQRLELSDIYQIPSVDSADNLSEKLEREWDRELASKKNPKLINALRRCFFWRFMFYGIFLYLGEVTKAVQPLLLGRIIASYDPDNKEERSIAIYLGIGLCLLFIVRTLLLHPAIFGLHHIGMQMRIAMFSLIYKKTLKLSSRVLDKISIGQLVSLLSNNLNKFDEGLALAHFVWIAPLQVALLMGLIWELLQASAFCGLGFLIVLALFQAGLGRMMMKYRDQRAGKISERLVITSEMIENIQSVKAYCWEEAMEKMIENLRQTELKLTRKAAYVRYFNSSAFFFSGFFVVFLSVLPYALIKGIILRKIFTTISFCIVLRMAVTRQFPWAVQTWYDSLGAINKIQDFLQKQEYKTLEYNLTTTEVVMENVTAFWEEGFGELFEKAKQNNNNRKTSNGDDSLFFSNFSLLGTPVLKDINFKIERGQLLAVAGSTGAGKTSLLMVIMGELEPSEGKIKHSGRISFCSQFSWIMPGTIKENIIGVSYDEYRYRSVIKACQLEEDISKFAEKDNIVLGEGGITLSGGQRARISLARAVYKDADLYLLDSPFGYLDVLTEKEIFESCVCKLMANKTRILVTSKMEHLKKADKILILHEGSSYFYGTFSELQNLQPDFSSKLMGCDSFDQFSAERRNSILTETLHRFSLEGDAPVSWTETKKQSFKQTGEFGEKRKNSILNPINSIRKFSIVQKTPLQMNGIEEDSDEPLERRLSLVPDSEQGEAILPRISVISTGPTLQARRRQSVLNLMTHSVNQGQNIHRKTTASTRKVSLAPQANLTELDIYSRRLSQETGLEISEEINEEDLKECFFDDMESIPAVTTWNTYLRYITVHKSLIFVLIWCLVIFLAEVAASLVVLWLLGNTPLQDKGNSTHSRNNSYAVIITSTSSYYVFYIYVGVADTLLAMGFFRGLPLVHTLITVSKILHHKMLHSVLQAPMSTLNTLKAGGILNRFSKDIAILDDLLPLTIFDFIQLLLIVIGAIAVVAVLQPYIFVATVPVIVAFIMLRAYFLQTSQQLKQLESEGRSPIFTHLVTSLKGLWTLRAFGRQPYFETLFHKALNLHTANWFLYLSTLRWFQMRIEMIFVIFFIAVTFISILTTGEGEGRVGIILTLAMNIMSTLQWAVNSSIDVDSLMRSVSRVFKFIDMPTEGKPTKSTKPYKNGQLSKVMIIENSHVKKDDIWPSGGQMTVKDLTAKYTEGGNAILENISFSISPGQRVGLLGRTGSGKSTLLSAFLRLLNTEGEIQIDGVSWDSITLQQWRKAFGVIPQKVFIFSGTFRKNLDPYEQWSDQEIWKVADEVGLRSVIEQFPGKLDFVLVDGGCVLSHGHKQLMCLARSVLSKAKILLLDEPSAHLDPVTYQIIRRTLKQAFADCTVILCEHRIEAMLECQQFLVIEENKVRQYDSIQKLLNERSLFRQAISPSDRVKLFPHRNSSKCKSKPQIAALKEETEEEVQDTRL
protocol-notes: H441 cell ΔF508-CFTR-HRP cell surface assay (Emax and EC50)
Assay type: cell-based
condition-parameters: NCI-H441, NA = Not active
measured-parameter: Emax (%)

Field: example entries. Status: answers known.
| compound | Emax, % |
| --- | --- |
| CC(C)(SCC1CC1(F)F)[C@H](NC(=O)c1ccc2cc(F)ccc2c1OCc1ccc(SC(F)(F)F)cc1)C(=O)O (stereo partly shown) | 63.5 |
| O=C(N[C@H](C(=O)O)C1CCCC1)c1ccc2ccccc2c1OCc1ccc(SC(F)(F)F)cc1 | 86.1 |
| CC(C)C#CCOc1c(C(=O)N[C@H](C(=O)O)C(C)(C)C)ccc2ccccc12 | 211 |
| O=C(N[C@H](C(=O)O)C1CCCC1)c1ccc2ccccc2c1OCc1ccc(S(=O)(=O)C(F)(F)F)cc1 | 51.7 |
| O=C(N[C@@H](Cc1ccccc1)C(=O)O)c1ccc2ccccc2c1OCc1ccc(C(F)(F)F)cc1 | 103 |

1. C#CC(C)(C)C(NC(=O)c1ccc2ccccc2c1OCc1ccc(OC(F)(F)F)cc1)C(=O)O (stereo not shown)
2. CC(C)(C)[C@H](NC(=O)c1ccc2ccccc2c1OCc1ccc(C(F)(F)F)c(F)c1)C(=O)O
Task: // compare measured Emax, left 1 , right 2 , return larger Choose, then provide that item's label.
Result: 2
(2: 287%, 1: 140%)

* * *

tested-on: human Cystic Fibrosis Transmembrane Conductance Regulator (CFTR) harboring the ΔF508 mutation (Homo sapiens, UniProt P13569, DEL508-508)
Construct: expressed in transfected cells; host or cells: H441 carcinoma line (G418-selected)
protocol-notes: H441 cell ΔF508-CFTR-HRP cell surface assay (Emax and EC50)
Format: cell-based
pEC50: −log10 of the molar value.
measured-parameter: pEC50

Recorded results for 5 compounds are shown here.
| compound | pEC50 |
| --- | --- |
| CC(C)(SCC1CC1(F)F)[C@H](NC(=O)c1ccc2cc(F)ccc2c1OCc1ccc(SC(F)(F)F)cc1)C(=O)O (stereo partly shown) [Example 167] | 5.92 |
| O=C(N[C@H](C(=O)O)c1ccccc1)c1ccc2ccccc2c1OCc1ccc(C(F)(F)F)cc1 [Example 140] | 5.24 |
| O=C(N[C@@H](Cc1ccco1)C(=O)O)c1ccc2ccccc2c1OCc1ccc(C(F)(F)F)cc1 [Example 136] | 5.09 |
| O=C(N[C@H](C(=O)O)C1Cc2ccccc2C1)c1ccc2ccccc2c1OCc1ccc(C(F)(F)F)cc1 [Example 143] | 5.72 |
| O=C(N[C@H](C(=O)O)C12CC(C(F)(F)F)(C1)C2)c1ccc2ccccc2c1OCc1ccc(SC(F)(F)F)cc1 [Example 17] | 6.15 |

A. CC(C)(C)[C@H](NC(=O)c1ccc2ccccc2c1OCC#CC1CC1)C(=O)O [Example 270]
B. CC(C)(C)[C@H](NC(=O)c1ccc2ccccc2c1OCc1ccc(S(C)(=O)=O)cc1)C(=O)O [Example 66]
Task: Kindly compare A with B and tell me which has the lower pEC50 figure. Write the label of whichever entry you select.
Result: A
(A: 4.91, B: 5.68)

Values were extracted from patent US12630498B2.
